- ASSAY_PROCEDURE: yeast display, Sf9 membrane polyspecificity reagent, FACS + sequencing; frameworks hold sequencing errors
METRIC_NAME: polyreactivity (PSR sort gate)

{"columns": ["ENTRY_SEQUENCE", "RESULT"],
 "data": [
  ["QLQLHESGGGLVQAGGCLSCTASGTIFGQGDMGWYRQAPGKERELVATINDGASTYYADSVKGRFTISRDKAKNTVYLKKNSLKPDDNAVYYCAVFTDITTYFGYWGQGTQVTVSS", "low polyreactivity"],
  ["QVQLVESGGGLVQAGGSLRLSCAASGRIIGPYTMGWYRQAPGKEMEFVAAITRRGGSTYYADSVKGRFTISRDNAKNTVYLQMNSLKPEDTEVYYCAAVGQKRSLGYSWGQGTQVTVSS", "low polyreactivity"],
  ["QVQLVESGGGLVQAGGSLRLSCAASGSTFSLYTMGWYRQAPGKERELVAAITNGGSTKYADSVKGRFTISRDNAKNTVYLQMNSLKPEDTAVYYCAALYTHYYWIEYDYWGQGTQVTVSS", "low polyreactivity"],
  ["QVQLVESGGGLVQAGGSLRLSCAASGSTFWANALGWYRQAPGKERELVAGITWNAGSTYYADSVKGRFTISRDNAKNTVYLQMNSLKPEDTGVYYCAAYYHFQGWGPGYNSWGQGTQVTVSS", "low polyreactivity"],
  ["QVQLVESGGGLVQAGGSLRLSCAASGRTFKTYTMGWYRQEPGKERELVAVISSGGGSTNYADSVKGRFTISRDNAKNTVYLQMNSLKPEDTAVYYCAARKTGRPKYRYDYWGQGTQVTVSS", "low polyreactivity"]
]}

====

- ASSAY_PROCEDURE: yeast display, Sf9 membrane polyspecificity reagent, FACS + sequencing; frameworks hold sequencing errors

{"columns": ["ENTRY_SEQUENCE", "polyreactivity (PSR sort gate)"],
 "data": [
  ["QVQLVESGGGLVQAGCSLRLSCAASGSIFGYNAMGWYRQAPGKERELVAAITGSGGSTYYADSVKGRFTISRDNAKNTVYLQMNSLKPEDTAVYYCADDLFGGPLGYWDYDYWGQGTQVTVSS", "low polyreactivity"],
  ["QVQLVESGGGLVQAGGSLRLSCAASGFIFPYYARGWYRQAPGKERELVAGITGADSTYYADSVKGRFTISRDNAKNTVYLQMNSLKPEDTAVYYCARKRYSLSRTYNYGYWGQGTQVTVSS", "high polyreactivity"],
  ["QVQHVQSGGGLVQAGGRHRLSCAASGSTIRYYAMGWYRQAPGTERELVAAISGSGGRTYYADSVKGRFTISRDNAKNTGYLQMNSLKPEDTAVYYCYTRGRRTDNDYWGQGTQLTVSS", "high polyreactivity"],
  ["QVHLVESGGGKVQAGGSLRLSCAASGGTFYQYAMGWYRQAPGKESELVAAITRSGGRTYYADSVKGRFTISRDNAKNTVYFQMNSLKPEDTAVYYCAAEDVGPPDFYYWGQGTQVNVSS", "high polyreactivity"],
  ["QVQLVESGGGLVQAGGILRLSCAASGSIFRQNPMGWYRKAPGKERELVAAISSGGSTYYADSVKGRFTISRDNAKNNVYLQRNSLKPEDTAVYYCAAYHSFVWGDDYWGQGTQVTVSS", "low polyreactivity"],
  ["QVQLEDSGGGLVQAGGSLRLSCAASGFTILRYAMGWYRQAPGKERELVAAIDWYGGSTYYADSVKGRFTISRDNAKNTVFVQMNSLKPEDCAVYYCNARKINFPSRFNDWGQGTQVTVSS", "low polyreactivity"],
  ["QVQLVESGGGLVQAGGSLRLSCAASGITFRKYAMGWYRQAPGTERELVAAISAGGGRTFYADSVKGRFTISRDNAKNTVYLQMNSLKPEDTAVYYCNADLGIGYDYWGQGTQVTVSS", "high polyreactivity"],
  ["QVQHVESGGGLVQAGGSLRLSCAASGSIFYVNAMGWYRQAPGKERELVAAITRDGSTNYADSVKGRFTISRDNAKNTVYLQMNSLKPEDTAVYYCAADFVRYIDREDYWGQGTQVTVSS", "low polyreactivity"],
  ["QVQLVESGGGLVQAGGSLRLSCAASGSIFVGYVMGWYRQAPGKERELVARIRWGGGRTYYADSVKGRFTISRDNAKNTVYLQMNSLKPEDTAVYYCNARYSYHSVGYWGQGTQVTVSS", "high polyreactivity"],
  ["QVQLVESGGGLVQAGGSLRLSCAASGYTCGPYAMGWYRQAPGKERELVAAITTRGGSTYYADSVKGRFTISRDNAKNTVYLQMNSLKPEDTAVYYCAAVVNSKSIQRVVRYYYWGQGTQVTVSS", "high polyreactivity"],
  ["QVQLVESGGGLVQAGGSLRLSCAASGFILGQYAMGWYRQAPGKERELVAAISGSSSTTYADCVKGRFTISRDNAKNTVYLQMNSLKPEDTAVYYCAAYYWYVTYFRREIAYEYWGQGTQVTVSS", "low polyreactivity"],
  ["QVQLVESGGGLVQAGGRLRLSCAASGSTFLVYAMGWYRQAPGKERELVAVIRWRDGSTYYADSVKGRFTISRDNAKNTVYLQMNSLKPEDTAGYYCAAVYWGEEYEYWGQGTQVTVSS", "low polyreactivity"],
  ["QVQLVESGGGLVQAGGSLRLSCAASGSIFPVYAMGWYRQAPGKERELVATIRSGGARTYYADSVKGRFTISRDNAKNTVYLQMNSLKPEDTAVYYCAVDQSRWQARYYYWGQGTQVTVSS", "high polyreactivity"],
  ["QVQLVESGGGLVQAGGSLRLSCAASGSTFNSYTMGWYRPAPGKERELVAAISWRGTSTYYADSVKGRFTISRDNAKNTVYLQMNSLKPEDTAVFYCAAAGRYRVLTGLVSSWKYWGQGTLVTVSS", "high polyreactivity"],
  ["QVQLVESAGGLVQAGGSLRLSCAASGRTSVIYAMGWYRQAPGKERELVASIRRGGSTSYADSVKGRFTISRDNAKNTVYLQMNSLKPEDTAVYYCARETLGGTYLGDYWGQGTQVTVSS", "high polyreactivity"],
  ["QVQLVESGGRLVQAGGSLRLSCAASGSTFAANAMGRYRQDPGKDRELVAGITSSGGSTYYADSVKGRFTISRDNAKNTDYLQLTSLKPEDNAVYYCNKDNARYVRMYDSWGQGTQVTVSS", "low polyreactivity"],
  ["QVQRVESAGGLVQAGGSLRLSSAASGFTFRRYAMGWYRQARGKERELVARITWSGTSTDYADSEKGRFTISRDNAKNTVYLQMNSLKPEDTAVYYCAKAYTPWSGRYFAGVGYYYWGQGTQVTVSS", "high polyreactivity"],
  ["QVQLVESGGGLVQAGGSLRLSCAASGSIYSRNAMGWYRQAPGKERELVAGISTGGSTNYADSVKGRFTISRDNAKNTVYLQMNSLKPEDTAVYYCAAPLAYEGDYWGQGSQVTVSS", "low polyreactivity"],
  ["QVQLVESGGGLVQAGGSLRLSCAASGRTFGGNAMGWYRQAPGKERELVASISWSGGTTYYADSVKGRFTISRDNAKNTVYFQMNSLKPEDTAVYYCNTVNSQQYSSSHYDSWGQGTQVTVSS", "high polyreactivity"],
  ["QVHLVESGGRLVQAGGSLRLSCAASGGTFYQYTMGWYRQAPGKERELVAAITRSGGSTRYADTVKGRFTISRDNAKNTVYLQMNSLKPEDTAVFYCAARSGYPSFEYWGPGTQVTVSS", "high polyreactivity"],
  ["QVQLVESGGGLVQAGGSLRLSCAASGRTFRSYVMGWYRQAPGKERELVAAITRSGGSTYYADSVKGRFTISRDNAKNTVYLQMNSLKPEDTAVYYCATDRWYYYPDYYPYGEYDYWGQGTQVTVSS", "low polyreactivity"]
]}
